# TGT: T1, MftR WT (Mycobacterium smegmatis mc2155, UniProt A0QSB5 1-200)
# T1 sequence: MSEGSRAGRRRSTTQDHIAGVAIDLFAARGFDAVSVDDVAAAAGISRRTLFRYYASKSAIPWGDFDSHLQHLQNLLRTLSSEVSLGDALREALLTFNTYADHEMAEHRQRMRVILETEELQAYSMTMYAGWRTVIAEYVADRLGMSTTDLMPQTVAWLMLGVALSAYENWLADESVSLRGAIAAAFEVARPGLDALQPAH
# METHOD: fluorescence polarization; EMSA: 50 mM Hepes, 50 mM NaCl, 0.1 mM EDTA, pH 7.5, room temperature 10 min, 5% PAGE in 1x TBE on ice; footprinting: 30 C 30 min; FP conditions not in material. Text fold changes for R29A/R48A and L120R/M127A are swapped relative to Table 2; table values used
# CONDITION INFO: protein: recombinant; tags: His-tag (pET-28a, NdeI/XhoI); chain copies: 2; label: 6-FAM; blunt
MEASUREMENT KIND: pKd
Remember, pKd is on a log scale: it is -log10 of the molar concentration.

According to the records, this binder FAM-Omft (dsDNA) DNA 1: TCCATTCTGGCACTCGATGCCATATAT DNA 2: ATATATGGCATCGAGTGCCAGAATGGA displays pKd of 5.89
